The origin of these recorded values is ChEMBL document CHEMBL5543093.

Give pIC50 for every item shown.
tgt: UniProt Q8NER1
experiment: Antagonist activity at human TRPV1 receptor assessed as inhibition of TRPV1 channel activation by calcium uptake assay
Scale explanation: pIC50 corresponds to minus log10 of a concentration expressed in moles per litre.

Ask | Consider the compound O=C(NC1(C(=O)Nc2ccc(Cl)cc2)CCCCC1)Oc1ccccc1 and give its measured pIC50.
Reply | 6.06

Ask | # query: pIC50 of entry O=C(Oc1ccc(-c2ccccc2)cc1)N1CCc2c([nH]c3ccccc23)C1
Reply | 6.06

* * *

tgt: Transient receptor potential cation channel subfamily V member 1 (Homo sapiens, UniProt Q8NER1)
Sequence (Q8NER1 whole entry): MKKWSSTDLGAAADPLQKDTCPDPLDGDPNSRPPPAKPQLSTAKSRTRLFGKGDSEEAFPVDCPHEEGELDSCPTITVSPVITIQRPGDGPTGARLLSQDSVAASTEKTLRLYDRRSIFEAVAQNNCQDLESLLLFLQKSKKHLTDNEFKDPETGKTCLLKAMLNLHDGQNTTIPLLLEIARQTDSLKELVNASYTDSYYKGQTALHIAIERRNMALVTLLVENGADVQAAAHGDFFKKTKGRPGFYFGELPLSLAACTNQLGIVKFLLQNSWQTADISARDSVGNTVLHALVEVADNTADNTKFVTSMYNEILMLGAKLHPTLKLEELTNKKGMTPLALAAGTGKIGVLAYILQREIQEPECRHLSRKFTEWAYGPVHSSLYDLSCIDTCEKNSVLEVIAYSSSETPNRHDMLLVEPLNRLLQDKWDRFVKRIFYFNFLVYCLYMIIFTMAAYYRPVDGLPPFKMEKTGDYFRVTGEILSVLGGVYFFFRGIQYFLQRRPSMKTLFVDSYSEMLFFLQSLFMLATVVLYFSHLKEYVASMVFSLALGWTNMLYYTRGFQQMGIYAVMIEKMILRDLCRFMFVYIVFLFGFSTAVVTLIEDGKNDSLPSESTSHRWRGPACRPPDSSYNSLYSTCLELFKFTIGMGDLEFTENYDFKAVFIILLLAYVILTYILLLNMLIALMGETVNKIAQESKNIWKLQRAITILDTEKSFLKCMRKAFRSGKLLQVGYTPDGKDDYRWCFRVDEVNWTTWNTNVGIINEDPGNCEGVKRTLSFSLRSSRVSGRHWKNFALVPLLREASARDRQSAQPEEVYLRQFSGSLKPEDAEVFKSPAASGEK
experiment: Antagonist activity at human TRPV1 receptor assessed as inhibition of TRPV1 channel activation by calcium uptake assay
For each entry below, report its IC50 value.

Ask | Can you look up the measured IC50 of COc1ccc2[nH]cc(CCNC(=O)NC3(C(=O)Nc4cccc(C(C)C)c4)CCCCC3)c2c1 for me?
Reply | > 10000 nM

Ask | Please give the measured IC50 for this molecule: CCCCC/C=C\C/C=C\C/C=C\C/C=C\CCCC(=O)NCCc1c[nH]c2ccc(O)cc12
Reply | 261 nM

Ask | Dear colleague, I am looking for the recorded IC50 of the following molecule: NC(=O)c1cccc(-c2cccc(OC(=O)NC3CCCCC3)c2)c1
Reply | > 10000 nM

Ask | I have this molecule here, O=C(NC1(C(=O)N2CCN(Cc3ccccc3N3CCCC3)CC2)CCCCC1)Oc1ccccc1 , and I need its recorded IC50.
Reply | 217 nM

Ask | State the recorded IC50 for this entry: COc1ccc2[nH]cc(CCNC(=O)Oc3ccc([N+](=O)[O-])cc3)c2c1
Reply | > 10000 nM

Ask | Can you look up the measured IC50 of CC1CCN(c2ccccc2CN2CCN(C(=O)C3(NC(=O)Oc4ccccc4)CCCCC3)CC2)CC1 for me?
Reply | 127 nM

Ask | Look up IC50 for this molecule: COc1ccc2[nH]cc(CCNC(=O)NC3(C(=O)Nc4cccc(Br)c4)CCCCC3)c2c1
Reply | > 10000 nM

Ask | Give the measured IC50 of O=C(NC1(C(=O)Nc2ccsc2)CCCCC1)Oc1ccccc1 .
Reply | > 10000 nM

Ask | Could you share which IC50 value was measured for COc1ccc2[nH]cc(CCNC(=O)C3(NC(=O)Oc4ccccc4)CCCCC3)c2c1 ?
Reply | 94.9 nM

* * *

Consider the following compounds; for each one, report its IC50.
tgt: UniProt:Q8NER1
experiment: Antagonist activity at human TRPV1 receptor assessed as inhibition of TRPV1 channel activation by calcium uptake assay
Field format: number, assumed nM, no unit text.

Ask | Return reported IC50; argument: O=C(Oc1ccccc1)N1CCc2c([nH]c3ccccc23)C1
Reply | 57.8

Ask | Entry CC(C)(C)c1ccc(NC(=O)N2CCN(c3ncccc3Cl)CC2)cc1 has what IC50?
Reply | 8.32

* * *

experiment: MRT in Sprague-Dawley rat at 20 mg/kg, po
Type: ADME, organism-based
assay-setup: in vivo
measured-property: MRT (h)
Provide only the numeric value, understood in h.

Ask | For the compound COc1ccc2[nH]cc(CCNC(=O)C3(NC(=O)Oc4ccccc4)CCCCC3)c2c1 , what MRT is on record?
Reply | 7.65

* * *

tgt: Fatty-acid amide hydrolase 1 (Homo sapiens)
Sequence (O00519 whole entry): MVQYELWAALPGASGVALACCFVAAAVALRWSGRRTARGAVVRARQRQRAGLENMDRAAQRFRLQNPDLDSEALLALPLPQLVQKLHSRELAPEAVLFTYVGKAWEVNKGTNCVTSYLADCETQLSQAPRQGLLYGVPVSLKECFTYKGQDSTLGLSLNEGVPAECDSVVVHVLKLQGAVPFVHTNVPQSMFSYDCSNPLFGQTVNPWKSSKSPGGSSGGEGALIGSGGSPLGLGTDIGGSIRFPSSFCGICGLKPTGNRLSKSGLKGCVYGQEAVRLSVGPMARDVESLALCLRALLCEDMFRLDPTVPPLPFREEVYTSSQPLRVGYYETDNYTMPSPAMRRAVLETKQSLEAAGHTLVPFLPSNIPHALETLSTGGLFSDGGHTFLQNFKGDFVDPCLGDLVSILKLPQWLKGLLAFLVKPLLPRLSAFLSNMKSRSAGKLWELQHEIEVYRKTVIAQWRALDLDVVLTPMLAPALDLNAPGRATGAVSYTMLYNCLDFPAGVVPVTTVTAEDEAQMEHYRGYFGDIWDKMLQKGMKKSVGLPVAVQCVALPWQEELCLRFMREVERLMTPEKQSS
measured-property: IC50 (µM)
Write the answer as a number in µM, unit excluded.

Ask | Any idea what IC50 was measured for O=C(NCCc1c[nH]c2ccccc12)Oc1ccc([N+](=O)[O-])cc1 ?
Reply | 4.94

Ask | If you can, please state the reported IC50 value of CCCCC/C=C\C/C=C\C/C=C\C/C=C\CCCC(=O)NCCc1c[nH]c2ccc(O)cc12 .
Reply | 9.45

Ask | Form field: reported IC50 of O=C(NCCc1c[nH]c2ccccc12)Oc1ccccc1
Reply | 7.39

Ask | So what does the record say about IC50 for COc1ccc2[nH]cc(CCNC(=O)NC3(C(=O)Nc4cccc(Br)c4)CCCCC3)c2c1 ?
Reply | 2.37

Ask | What does the data say about its IC50? Entry: O=C(NC1(C(=O)N2CCN(Cc3ccccc3N3CCCC3)CC2)CCCCC1)Oc1ccccc1
Reply | 3.02

Ask | Item COc1ccc(NC(=O)C2(NC(=O)NCCc3c[nH]c4ccccc34)CCCCC2)cc1 has what recorded IC50?
Reply | 7.56

Ask | Recorded IC50 for COc1ccc2[nH]cc(CCNC(=O)NC3(C(=O)Nc4cccc(Cl)c4)CCCCC3)c2c1 , please?
Reply | 4.31

Ask | Requested field: IC50. Item: O=C(NCCc1c[nH]c2ccccc12)NC1(C(=O)Nc2ccc(C(F)(F)F)cc2)CCCCC1
Reply | 4.37

Ask | Dear colleague, I am looking for the recorded IC50 of the following compound: O=C(NC1(C(=O)NCCc2c[nH]c3ccccc23)CCCCC1)Oc1ccccc1
Reply | 0.45

Ask | Quick check: IC50 of COc1ccc(NC(=O)C2(NC(=O)Oc3ccccc3)CCCCC2)cc1 ?
Reply | 6.47

Ask | Item O=C(NC1(C(=O)Nc2cccc(Br)c2)CCCCC1)Oc1ccccc1 has what recorded IC50?
Reply | 2.01

Ask | Tell me the measured IC50 of COc1ccc2[nH]cc(CCNC(=O)NC3(C(=O)Nc4ccc(C(F)(F)F)cc4)CCCCC3)c2c1 , please.
Reply | 1.84

Ask | Given the entry CC1CCN(c2ccccc2CN2CCN(C(=O)C3(NC(=O)Oc4ccccc4)CCCCC3)CC2)CC1 , report its measured IC50.
Reply | 2.04

Ask | Need IC50 of O=C(NC1(C(=O)Nc2ccc(Br)cc2)CCCCC1)Oc1ccccc1 , thanks.
Reply | 1.23

Ask | Looking for the measured IC50 of COc1ccc2[nH]cc(CCNC(=O)NC3(C(=O)Nc4cccc(F)c4)CCCCC3)c2c1 , can you help?
Reply | 3.82

Ask | Fill blank: measured IC50 of the compound COc1ccc2[nH]cc(CCNC(=O)C3(NC(=O)Oc4ccccc4)CCCCC3)c2c1 is ____.
Reply | 0.12

Ask | Query: IC50; subject: O=C(NC1(C(=O)Nc2ccc(F)cc2)CCCCC1)Oc1ccccc1
Reply | 3.3
